B1: MTMR15 (parent)
chain: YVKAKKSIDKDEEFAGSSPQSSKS

variants of: B1; assay: protein stability index of a GFP-peptide fusion (GPS, HEK-293T) (PSI 1-6); higher = more stable; settings: c terminus: a fixed tail appended;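 also: lentivirally expressed fusions sorted by FACS into six bins by GFP to DsRed ratio, PSI derived from sequencing read proportions per bin multiplied by bin number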
Reported protein stability index values for the following variants.
quantityKind: protein stability index

> print(dat)
    mutationdescriptor             quantitykind  measuredresult
 1                S22M  protein stability index            3.06
 2                S21K  protein stability index            2.92
 3                 A4N  protein stability index            2.99
 4                Q20M  protein stability index            2.92
 5                Q20N  protein stability index            2.96
 6                S24G  protein stability index            2.93
 7                 A4L  protein stability index            3.04
 8                S22C  protein stability index            3.08
 9                K10N  protein stability index            2.92
10                 I8R  protein stability index            2.98
11                A15P  protein stability index            3.06
12                 A4C  protein stability index            2.97
13                E12M  protein stability index            2.93
14                E12S  protein stability index            2.92
15                K10W  protein stability index            2.96
16                 D9T  protein stability index            2.91
17                 S7N  protein stability index            2.98
